# viability annotations
# cond: % Viability non-Wnt responsive cells; note: test concentration or dose not given here
Where a SMILES comes first, the peptide text is derived from it.
Please give a number only; it is taken to be in %.

input: Which value of viability has been reported for CC[C@H](C)[C@H](NC(=O)[C@H](CC(C)C)NC(=O)[C@@H](NC(=O)[C@H](Cc1c[nH]c2ccccc12)NC(=O)[C@@H](N)CCCNC(=N)N)[C@@H](C)CC)C(=O)N[C@@H](CS)C(=O)N[C@@H](Cc1ccccc1)C(=O)N[C@@H](Cc1c[nH]c2ccccc12)C(=O)NCC(=O)O [compound 119] (H-RWILICFWG-OH) in the records?
output: 143

Next:
input: Which value of viability has been reported for CC[C@H](C)[C@H](NC(=O)[C@H](CC(C)C)NC(=O)[C@H](Cc1ccccc1)NC(=O)[C@@H](N)Cc1c[nH]c2ccccc12)C(=O)N[C@@H](CO)C(=O)N[C@@H](Cc1ccc(O)cc1)C(=O)N[C@@H](Cc1c[nH]c2ccccc12)C(=O)O [compound 109] (H-WFLISYW-OH) in the records?
output: 103
